# assay_remarks: Antagonist activity at estrogen receptor in human MCF7 cells assessed as inhibition of estradiol-induced cell proliferation after 5 days by WST-8 assay
reported_metric: IC50 (nM)
Write down the numeric answer in nM and omit the unit.

Task: Dear colleague, I am looking for the recorded IC50 of the following compound: CN(C)CCOc1ccc(C23CC4CC(CC(c5ccc(O)cc5)(C4)C2)C3)cc1
Result: 1060

----------
# assay_remarks: Agonist activity at estrogen receptor in human MCF7 cells assessed as induction of cell proliferation after 5 days by WST-8 assay
reported_metric: pEC50
// scale note: pEC50 = -log10(conc_M); give the bare number

Task: Dear colleague, I am looking for the recorded pEC50 of the following molecule: CN(C)CCOc1ccc(C23CC4CC(CC(c5ccc(O)cc5)(C4)C2)C3)cc1
Result: 7.80
